Can you tell me Euclidean distance for the items I'm about to list?
system: OVCAR4; assay: Euclidean distance of Cell Painting phenotypic profile (signed KS, 77 features) to DMSO centroid (dimensionless distance); 5 or 10 uM (library dependent); higher = stronger phenotypic change vs DMSO (phenoactivity); details: 48 h
Structures can show the parent of a compound that is named as a salt.

So the reported Euclidean distance for N#CC(c1ccc(Cl)cc1)c1c(Cl)cc(-n2ncc(=O)[nH]c2=O)cc1Cl (centres undefined) [Diclazuril] , on OVCAR4, turned out to be 1.22

So the reported Euclidean distance for Cc1ccc(-c2nc(N)nc3c2nnn3Cc2cccc(CO[C@H]3CCOC3)n2)o1 , on OVCAR4, turned out to be 0.627

So the reported Euclidean distance for Nc1nc(N)nc(-c2cc(Cl)ccc2Cl)n1 [Irsogladine] , on OVCAR4, turned out to be 1.41

So the reported Euclidean distance for Cc1cc(OCCCS(C)(=O)=O)cc(C)c1-c1cccc(COc2ccc3c(c2)OC[C@H]3CC(=O)O)c1 , on OVCAR4, turned out to be 1.88

So the reported Euclidean distance for CCOc1nc2cccc(C(=O)O)c2n1Cc1ccc(-c2ccccc2-c2nnn[nH]2)cc1 [Candesartan] , on OVCAR4, turned out to be 1.84

So the reported Euclidean distance for CCCC(=O)[O-].[Na+] [Sodium butyrate] , on OVCAR4, turned out to be 1.51

So the reported Euclidean distance for CN(C)Cc1ccc(S(=O)(=O)n2ccc(/C=C/C(=O)NO)c2)cc1 [Resminostat] , on OVCAR4, turned out to be 2.81

So the reported Euclidean distance for CN1CCc2nc(C(=O)N[C@@H]3C[C@@H](C(=O)N(C)C)CC[C@@H]3NC(=O)C(=O)Nc3ccc(Cl)cn3)sc2C1 [Edoxaban] , on OVCAR4, turned out to be 0.602

So the reported Euclidean distance for CN(C)CC/C=C1/c2ccccc2Sc2ccc(Cl)cc21 [Chlorprothixene] , on OVCAR4, turned out to be 1.33

So the reported Euclidean distance for CN(C)CCC=C1c2ccccc2C=Cc2ccccc21 [Cyclobenzaprine HCl] , on OVCAR4, turned out to be 1.16

So the reported Euclidean distance for N=C(N)NC(=O)c1nc(Cl)c(N)nc1N [Amiloride HCl dihydrate] , on OVCAR4, turned out to be 1.28

So the reported Euclidean distance for COc1ccc(-c2cc(=O)c3c(O)cc(O[C@@H]4O[C@H](CO[C@@H]5O[C@@H](C)[C@H](O)[C@@H](O)[C@H]5O)[C@@H](O)[C@H](O)[C@H]4O)cc3o2)cc1O [Diosmin] , on OVCAR4, turned out to be 0.702

So the reported Euclidean distance for COc1ccc(C(=O)Nc2sc3c(c2C(N)=O)CCCC3)cc1OC , on OVCAR4, turned out to be 2.82

So the reported Euclidean distance for S=P(N1CC1)(N1CC1)N1CC1 [Thiotepa] , on OVCAR4, turned out to be 3.07

So the reported Euclidean distance for O=C(CO)[C@@H](O)[C@H](O)[C@H](O)CO [Fructose] , on OVCAR4, turned out to be 1.17

So the reported Euclidean distance for NCCOB(c1ccccc1)c1ccccc1 [2-Aminoethyl Diphenylborinate (2-APB)] , on OVCAR4, turned out to be 1.13

So the reported Euclidean distance for c1ccc(-c2nn3c(c2-c2ccnc4cc(OCCN5CCOCC5)ccc24)CCC3)nc1 , on OVCAR4, turned out to be 0.876

So the reported Euclidean distance for CC/C(=C(\c1ccc(O)cc1)c1ccc(OCCN(C)C)cc1)c1ccccc1 [4-Hydroxytamoxifen] , on OVCAR4, turned out to be 2.89

So the reported Euclidean distance for CCC1(c2ccccc2)C(=O)NCNC1=O [Primidone] , on OVCAR4, turned out to be 2.2
